Origin of the recorded values: patent US9242970B2

Biological target: human orexin-1 receptor (Homo sapiens (Human))
Sequence (O43613 whole entry): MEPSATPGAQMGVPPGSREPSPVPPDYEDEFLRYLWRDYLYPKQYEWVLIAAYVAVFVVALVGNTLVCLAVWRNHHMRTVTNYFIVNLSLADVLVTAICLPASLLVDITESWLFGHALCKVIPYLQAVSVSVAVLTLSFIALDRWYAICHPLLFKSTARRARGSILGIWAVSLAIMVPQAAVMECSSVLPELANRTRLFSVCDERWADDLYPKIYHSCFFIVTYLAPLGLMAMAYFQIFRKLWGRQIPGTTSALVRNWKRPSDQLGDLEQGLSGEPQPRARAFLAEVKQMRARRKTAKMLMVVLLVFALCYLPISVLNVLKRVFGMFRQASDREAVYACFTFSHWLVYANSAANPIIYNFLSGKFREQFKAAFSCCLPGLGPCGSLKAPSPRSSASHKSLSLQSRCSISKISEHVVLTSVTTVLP
Assay: In vitro assay: intracellular calcium measurements (FLIPR), antagonistic activity
Assay type: cell-based
Conditions: CHO cells, 3 nM orexin-A, compound incubation 120 min; marked values are geometric means of n = 2-6; read-out: IC50 OX1

# compound, readout_unit, IC50
data = [
    ("COc1cccc(OC)c1C1CCCC(=O)N1Cc1ccc(F)c(-c2ccccn2)c1 (centres unmarked)", "nM", 18),
    ("COc1c(F)ccc(F)c1[C@@H]1C[C@H](Cl)C(=O)N1Cc1ccc(OC(F)(F)F)cc1 (racemic)", "nM", 1050),
    ("COc1cccc(F)c1[C@@H]1C[C@@H](O)C(=O)N1Cc1ccc(OC(F)(F)F)cc1 (racemic)", "nM", 2750),
    ("COc1cccc(OC)c1C1CCCCC(=O)N1Cc1cccc(N2CCCCC2)c1 (centres unmarked)", "nM", 12),
    ("COc1cncc(OC)c1C1CCCC(=O)N1Cc1cccc(-c2csc(C)n2)c1 (centres unmarked)", "nM", 25),
    ("COc1cccc(OC)c1C1CCCCC(=O)N1Cc1cccc(-c2ncccn2)c1 (centres unmarked)", "nM", 3),
    ("COc1ccc2ccccc2c1C1CCCC(=O)N1Cc1cccc(-c2ncc(C)s2)c1 (centres unmarked)", "nM", 12),
    ("COc1cccc(F)c1C1CC(C)C(=O)N1Cc1ccnc(-c2nc(C)cs2)c1 (centres unmarked)", "nM", 158),
]
